system: HOP-62 NSCLC; assay: NCI tumour cell line growth inhibition, 48 h
observationType: TGI (µM)
Use µM as the unit, but write only the number.

Illustrative cases are given below, each with its answer.
Give TGI for O=C(CCSC(CC(=O)c1ccc(Cl)cc1)c1ccc(Cl)cc1)Nc1ccc(Cl)cc1 (stereo not drawn) tested on HOP-62 NSCLC.
29.1

Give TGI for Oc1c(OCc2nnc(CCCCCCCCc3nnc(COc4ccc5ccccc5c4O)n3Nc3ccccc3)n2Nc2ccccc2)ccc2ccccc12 tested on HOP-62 NSCLC.
3.77

Give TGI for [N-]=N[N+]#I1OC(C(F)(F)F)(C(F)(F)F)c2ccccc21 tested on HOP-62 NSCLC.
28.4

***
Give TGI for COC[C@H]1C(=O)NCC(=O)N2NCCC[C@H]2C(=O)N(O)[C@H](C)C(=O)O[C@@H](C(C)C)[C@H](NC(=O)[C@](C)(O)[C@]2(O)CC[C@@H](CC(C)C)[C@H](C)O2)C(=O)N2NCCC[C@@H]2C(=O)N1O tested on HOP-62 NSCLC.
0.0149

---

tested on: NCI-H460 lung; assay: NCI tumour cell line growth inhibition, 48 h
As shown below, each of these compounds has a reported TGI value.
Use µM as the unit, but write only the number.

In one line, give reported TGI of the entry CCCCCCCCCCCCCCCC[N+](C)(C)Cc1ccc(C[N+](C)(C)CCCCCCCCCCCCCCCC)cc1 .
8.71

In one line, give reported TGI of the entry Cn1ncc2c(Nc3ccc(Br)cc3)nc(Nc3ccc(Br)cc3)nc21 .
5.23

In one line, give reported TGI of the entry CN(CCNC(=O)c1[nH]nc2c1ccc1ccccc12)CCNC(=O)c1[nH]nc2c1ccc1ccccc12 .
5.11

Consider the additional compound presented here.
In one line, give reported TGI of the entry COc1ccc2c(c1)C(=O)c1c-2c(NCCCN(C)C)nc2ccccc12 .
2.76

---

test system: SNB-75 CNS; experiment: NCI tumour cell line growth inhibition, 48 h
Assign class by TGI: not lower than 4 µM means 1.0; lower than 4 µM means 0.0.

Consider the worked cases shown below.
hey, is TGI for this one >= 4 µM? ClCCN(CCCl)Cc1ccc(Nc2ccnc3cc(Cl)ccc23)cc1
0.0

hey, is TGI for this one >= 4 µM? Cc1ccc(NS(=O)(=O)c2ccc(-c3cnc(C4CC4)o3)cc2)cc1
1.0

***
hey, is TGI for this one >= 4 µM? Oc1c(OCc2nnc(CCCCCCCCc3nnc(COc4ccc5ccccc5c4O)n3Nc3ccccc3)n2Nc2ccccc2)ccc2ccccc12
1.0

hey, is TGI for this one >= 4 µM? CCOC(C)OCC#CCCBr (stereo unspecified)
1.0

hey, is TGI for this one >= 4 µM? Cc1nc2sc(C(=O)Nc3cccc4ccccc34)c(N)c2cc1C(C)O (stereo unspecified)
1.0

hey, is TGI for this one >= 4 µM? c1cnc2c(c1)-n1cccc1C1(CCOCC1)NN2
1.0

hey, is TGI for this one >= 4 µM? O=C1Nc2ccccc2C(=O)OC(Cc2ccccc2)=Nc2ccccc21
1.0

hey, is TGI for this one >= 4 µM? O=C(NNc1nc2cc(F)ccc2n2c(CN3CCOCC3)ccc12)c1ccccc1
0.0

---

As shown below, each of these compounds has a reported TGI value.
test system: SW-620 colon; experiment: NCI tumour cell line growth inhibition, 48 h

Illustrative cases are given below, each with its answer.
Give TGI for O=CC1=CCCC2(C1)OCCO2 tested on SW-620 colon.
> 100 µM

Give TGI for CC1(C)CCC(S(=O)(=O)c2ccc3c(c2)/C(=N\O)c2cc(S(=O)(=O)N4CCC(O)(c5cccc(C(F)(F)F)c5)CC4)ccc2-3)CC1 tested on SW-620 colon.
0.0319 µM

Give TGI for CN(NC(=O)c1ccco1)C1=NCCCCN1 tested on SW-620 colon.
> 100 µM

Give TGI for O=c1cc2n(c(=O)[nH]1)C1OC(C(O)C1O)[C@@H]2CCO (stereo partly specified) tested on SW-620 colon.
> 100 µM

Give TGI for O=C(NC1CCCCC1)c1c(O)[nH]c(=S)[nH]c1=O tested on SW-620 colon.
> 100 µM

Give TGI for CC(C)C1CN1CC(O)Cn1ccnc1[N+](=O)[O-] (stereo unspecified) tested on SW-620 colon.
> 100 µM

***
Give TGI for Nc1c(Br)cc(-c2cc(Br)c(N)c(Br)c2)cc1Br tested on SW-620 colon.
> 100 µM

Give TGI for CS(=O)(=O)c1nccc(-c2c(-c3cccc(OCc4ccc(F)cc4)c3)nc3sccn23)n1 tested on SW-620 colon.
> 100 µM

Give TGI for O=C1CC(NC(=O)C(F)(F)F)c2c(Br)sc(N3CCC(c4ccccc4)CC3)c21 (stereo unspecified) tested on SW-620 colon.
> 100 µM

Give TGI for O=c1/c(=C/c2cccc3ccccc23)sc2nc3ccccc3n12 tested on SW-620 colon.
> 100 µM

Give TGI for COc1ccc2c(c1O)-c1c(OC)c(OC)cc3c1[C@H](C2)[N+](C)(C)CC3 tested on SW-620 colon.
> 100 µM

Give TGI for CCCCCCCCCCCCNC(=O)NCC(OCC)OCC tested on SW-620 colon.
> 10 µM

Give TGI for COc1ccc(C(CC(=O)c2ccccc2)C(C(=O)c2ccccc2)C(c2ccc(OC)cc2)C2C(=O)NC(=O)NC2=O)cc1 (stereo unspecified) tested on SW-620 colon.
> 100 µM

Give TGI for O=c1c2cc([N+](=O)[O-])ccc2n2n1Cc1ccccc1CC2 tested on SW-620 colon.
> 100 µM

Give TGI for COC(=O)c1cnc2nc(N3CCOCC3)[nH]n2c1=O tested on SW-620 colon.
> 100 µM

---

system: COLO 205 colon; test: NCI tumour cell line growth inhibition, 48 h
observationType: TGI

Illustrative cases are given below, each with its answer.
In one line, give reported TGI of the entry CO/N=C(\c1ccccc1)c1cnn(-c2ccccc2)c1N .
> 25 µM

In one line, give reported TGI of the entry CC(=O)N[C@@H](Cc1ccc(O)cn1)C(=O)NCc1cccc(F)c1 .
> 100 µM

In one line, give reported TGI of the entry N#Cc1c(-c2ccco2)c2c(n(C3OC(CO)C(O)C(O)C3O)c1=S)CCCC2 (configuration not stated) .
> 100 µM

In one line, give reported TGI of the entry O=c1c2cc([N+](=O)[O-])ccc2n2n1Cc1ccccc1CC2 .
> 100 µM

In one line, give reported TGI of the entry O=C(Cc1ccc(Cl)c(Cl)c1)NCCCN1CCN(CCCN2CCCCC2)CC1 .
29.8 µM

In one line, give reported TGI of the entry C1=C2SSC3=CC=C(SSc4ccc(s4)SSC4=CC=C(SSC(=C1)S2)S4)S3 .
> 100 µM

In one line, give reported TGI of the entry Cc1c(C)c(C)c(-n2c(=O)n(C)c(=O)n2C(C)(C)C)c(C)c1C .
> 100 µM

In one line, give reported TGI of the entry COC1/C=C\C=C(/C)C(=O)NC2=CC(=O)C(NCCCl)=C(CC(C)CC(OC)C(O)C(C)/C=C(/C)C1OC(N)=O)C2=O (configuration not stated) .
1.2 µM

***
In one line, give reported TGI of the entry O=CC1=CCCC2(C1)OCCO2 .
> 100 µM

In one line, give reported TGI of the entry COc1ccc2c(c1)O/C(=C\c1cccc(OCC(=O)Nc3nc4ccccc4s3)c1)C2=O .
> 100 µM

In one line, give reported TGI of the entry COc1ccc(NC(=S)NN=C(C)c2cccc(C(C)=NNC(=S)Nc3ccc(OC)cc3)n2)cc1 .
> 100 µM

In one line, give reported TGI of the entry O=C1Nc2ccc(Cl)cc2/C1=C\c1c(-c2ccc(F)cc2)nc2ccccn12 .
13.6 µM

---

tested on: HT29 colon; assay: NCI tumour cell line growth inhibition, 48 h
observationType: TGI (µM)
Use µM as the unit, but write only the number.

Illustrative cases are given below, each with its answer.
In one line, give reported TGI of the entry O=C1C=C(SCCO)C(=O)c2ccccc21 .
6.73

In one line, give reported TGI of the entry c1ccc(COc2ccc(C[P+](c3ccccc3)(c3ccccc3)c3ccccc3)cc2)cc1 .
2.02

In one line, give reported TGI of the entry CCOC(=O)C1(Cc2ccc(C)cc2)Cc2ccc(C)cc2C1=O (stereo not given) .
49.1

Consider the additional compound presented here.
In one line, give reported TGI of the entry C[C@]12CC[C@H](O)CC1=CC[C@@H]1[C@@H]2CC[C@]2(C)C(=O)/C(=C/c3cccc(OCCCn4ccnc4)c3)C[C@@H]12 .
27

---

system: UACC-62 melanoma; assay: NCI tumour cell line growth inhibition, 48 h
As shown below, each of these compounds has a reported TGI value.

In one line, give reported TGI of the entry COc1ccc2c(c1)C(=O)c1c-2c(NCCCN(C)C)nc2ccccc12 .
4.41 µM

In one line, give reported TGI of the entry O=c1/c(=C/c2cccc3ccccc23)sc2nc3ccccc3n12 .
> 100 µM

In one line, give reported TGI of the entry COc1c2cc(C(C)(C)C)cc1CSCc1cc(C(C)(C)C)cc(c1OC)CCCCC2 .
> 50 µM

In one line, give reported TGI of the entry N#Cc1[nH]c(=O)n(-c2ccc([N+](=O)[O-])cc2)c1N .
> 10 µM

In one line, give reported TGI of the entry CCc1nc2c(O)ccc(O)c2nc1C .
27.5 µM

***
In one line, give reported TGI of the entry O=C(NO)c1ccc(C(=O)NO)cc1 .
> 100 µM

In one line, give reported TGI of the entry CS(=O)(=O)C1S(=O)(=O)OCCOS1(=O)=O .
> 100 µM
